- System: HOP-92
- MEASUREMENT DESCRIPTION: NCI tumour cell line growth inhibition, 48 h
Activity calls are given as the source filed them. Cut-off read from the data, not from the text of the source: active = GI50 up to about 1.1 µM and inactive = higher.
Bench note: report the call from active, inactive

Would you mind telling me which call this test gave O=S(=O)(CF)OCCCCOS(=O)(=O)CF ?
active

Would you mind telling me which call this test gave O=C1OC(c2ccccc2)=N/C1=C\c1cccc(F)c1 ?
inactive

Would you mind telling me which call this test gave O=c1c2cc(I)ccc2nc(S)n1Cc1ccccc1 ?
inactive

Would you mind telling me which call this test gave Cc1ccc(NC(=O)NC23CC4CC(CC(F)(C4)C2)C3)cc1 ?
inactive

Would you mind telling me which call this test gave COc1cc2c3c(n(Cc4ccccc4)c(=O)c2cc1OC)-c1ccccc1C3=O ?
inactive

====

- Test system: SF-539
- MEASUREMENT DESCRIPTION: NCI tumour cell line growth inhibition, 48 h
Calls of active or inactive are those of the source. Rule as the data show it: active = GI50 up to about 1.1 µM and inactive = higher.
Bench note: report the call from active, inactive

Would you mind telling me which call this test gave CCO/C=N/C1=C(C#N)C(c2ccc(OC)c(OC)c2)c2c(-c3ccccc3)nn(-c3ccccc3)c2O1 (stereo not drawn) ?
inactive

Would you mind telling me which call this test gave O=c1c2c3c(sc2nc2n1NC=NN2)CCCC3 ?
inactive

Would you mind telling me which call this test gave Cc1cc(C)n(C(=CC(=O)C(Cl)Cl)n2nc(C)cc2C)n1 ?
inactive

Would you mind telling me which call this test gave Nc1nc(N)nc(CCCCc2nc(N)nc(N)n2)n1 ?
inactive

====

- Test system: M14
- MEASUREMENT DESCRIPTION: NCI tumour cell line growth inhibition, 48 h
Active and inactive are the calls of the source. Cut-off read from the data, not from the text of the source: active = GI50 up to about 1.1 µM and inactive = higher.
Bench note: report the call from label 1 = active, label 0 = inactive

Sample answers from the record:
INSERT INTO results (compound, label) VALUES
  ('Cc1cc(S(=O)(=O)/N=C(\NN)NCC(=O)NN)c(S)cc1Cl', 'label 0'),
  ('Cc1ccc(NC(=O)CC/C(CC(=O)C(C)(C)C)=N\Nc2ccc([N+](=O)[O-])cc2[N+](=O)[O-])cc1C', 'label 1'),
  ('COc1ccc2c(c1OC)OCC(CN(C)C)C2=O (stereo not given)', 'label 0'),
  ('Cc1c(C)n(-c2ccccc2)c2nc(S(C)(=O)=O)nc(S(C)(=O)=O)c12', 'label 0');

Would you mind telling me which call this test gave Cc1cccc(CNc2[nH]cnc3nncc2-3)c1 ?
label 0

====

Assignment: determine reported GI50 for the given compounds.
- Tested on: HOP-62
- MEASUREMENT DESCRIPTION: NCI tumour cell line growth inhibition, 48 h
Activity calls are given as the source filed them. Rule as the data show it: active = GI50 up to about 1.1 µM and inactive = higher.

Previously resolved entries follow.
INSERT INTO assay_data (compound, recorded_result) VALUES
  ('COC(=O)C(=O)C(C(=O)C(=O)Nc1ccc(C)cc1C)c1nc2ccccc2nc1O (stereo unspecified)', '39.4 µM (inactive)'),
  ('COC(=O)[C@@H]1C[C@@H](O)CN1C(=O)c1ccc([N+](=O)[O-])cc1[N+](=O)[O-]', '> 100 µM (inactive)'),
  ('CC[C@H]1[C@@H](C)C=C[C@@H](C)N1S(=O)(=O)c1ccc(C)cc1', '> 100 µM (inactive)'),
  ('COc1ccc(C2c3c(n(C)c(=O)n(C)c3=O)OC(N(C)C)(N(C)C)C2(F)F)cc1 (stereo unspecified)', '> 100 µM (inactive)'),
  ('CCN(CC)CC/N=C\c1c(O)c(O)c(C(C)C)c2cc(C)c(-c3c(C)cc4c(C(C)C)c(O)c(O)c(/C=N/CCN(CC)CC)c4c3O)c(O)c12', '2.65 µM (inactive)');

Consider the record given below.
What value of measured GI50 is listed for O=C1C2C3C=C4c5ccccc5N(c5ccccc5)C4(C2C(=O)N1c1ccc(Cl)cc1)[C@H]1C(=O)N(c2ccc(Cl)cc2)C(=O)[C@@H]31 (stereo partly specified) ?
> 100 µM (inactive)

====

- Tested on: RXF 393
- MEASUREMENT DESCRIPTION: NCI tumour cell line growth inhibition, 48 h
Activity calls are given as the source filed them. Rule as the data show it: active = GI50 up to about 1.1 µM and inactive = higher.
Bench note: report the call from True (active), False (inactive)

INSERT INTO measurements (compound, label) VALUES
  ('N#CC1(C#N)NC(c2cccs2)C(C#N)(C#N)NC1c1cccs1 (stereo not drawn)', 'False'),
  ('COc1cc(NC(C)=O)c2[nH]c3c(C)cc(NC(C)=O)c(C)c3c2c1', 'False'),
  ('COc1ccc(/C(Cl)=C(\C=O)c2ccc(OC)c(OC)c2)cc1OC', 'False'),
  ('Cc1cc(S(=O)(=O)/N=C(\NN)NCC(=O)NN)c(S)cc1Cl', 'False'),
  ('c1ccc2c(c1)nc1ccccn12', 'False');

Would you mind telling me which call this test gave O=[N+]([O-])c1ccc(NC(=S)N/N=C(\c2ccccc2)c2ccccn2)cc1 ?
False

Would you mind telling me which call this test gave O=C(O)CCCC(=O)Nn1c(Cc2ccc(Cl)cc2)n[nH]c1=O ?
False

Would you mind telling me which call this test gave CC(C)(C)C(=O)/C=C(\OB(F)F)C(C)(C)C ?
False

Would you mind telling me which call this test gave O=C(O)c1cc([N+](=O)[O-])cc2c(=O)c3cnccc3[nH]c12 ?
False

Would you mind telling me which call this test gave CC[C@H]1[C@@H](C)C=C[C@@H](C)N1S(=O)(=O)c1ccc(C)cc1 ?
False

Would you mind telling me which call this test gave Nc1nc(Cl)cc(/N=N\c2ccccc2)n1 ?
False

Would you mind telling me which call this test gave CCC[C@H]1C(=O)N=C(N)N1C(=O)OCc1ccccc1 ?
False

Would you mind telling me which call this test gave O=[N+]([O-])C(=C(Sc1ccccc1)Sc1ccccc1)C(Cl)=C(Cl)Cl ?
True

====

- Tested on: NCI-H23
- MEASUREMENT DESCRIPTION: NCI tumour cell line growth inhibition, 48 h
The source made the active and inactive calls. Cut-off read from the data, not from the text of the source: active = GI50 up to about 1.1 µM and inactive = higher.
Bench note: report the call from 1 (yes) for active, 0 (no) for inactive

Sample answers from the record:
INSERT INTO results (compound, label) VALUES
  ('Cc1ccccc1NC(=O)C(=O)CC(=O)c1ccc([N+](=O)[O-])cc1', '0 (no)'),
  ('CCCCCCCCCCC1OC([C@@H](O)CC[C@H](O)C2CC[C@@H](CCCCCCCC(O)CC3=CC(C)OC3=O)O2)CCC1O (some centres undefined)', '1 (yes)'),
  ('CCOC12OC3=C(CC1CC1=C(CCC1=O)O2)C(=O)CC3 (centres undefined)', '0 (no)');

Next:
Would you mind telling me which call this test gave O=c1c2cc(I)ccc2nc(S)n1Cc1ccccc1 ?
0 (no)

====

- Tested on: K562
- MEASUREMENT DESCRIPTION: NCI tumour cell line growth inhibition, 48 h
Structures can show the parent of a compound that is named as a salt. Calls of active or inactive are those of the source. No stated cut-off is given here; in the data, active = GI50 up to about 1.1 µM and inactive = higher.
Bench note: report the call from active, inactive

Sample answers from the record:
INSERT INTO results (molecule, experimental_target, label) VALUES
  ('COC(=O)C1=C(C(=O)OC)C2C(C)=CC(C)=CN2C(C#N)=C(SC)S1 (centres undefined)', 'K562', 'inactive'),
  ('O=c1c(C(c2cccc(C(c3c(O)oc4ccccc4c3=O)c3c(O)oc4ccccc4c3=O)c2)c2c(O)oc3ccccc3c2=O)c(O)oc2ccccc12', 'K562', 'inactive'),
  ('C=CC(O)(CBr)CCC(Br)C(=C)C (centres undefined)', 'K562', 'inactive'),
  ('O=c1[nH]c(=O)n(C2CC(O)C(CO)O2)cc1/N=N/NCc1ccccc1 (centres undefined)', 'K562', 'inactive'),
  ('CC(=O)c1sc2c(c1OC(=O)c1ccc(Cl)cc1)c(=O)n(-c1ccccc1)c(=S)n2-c1ccccc1', 'K562', 'inactive');

Would you mind telling me which call this test gave CC[C@]12CN3CCc4c([nH]c5ccccc45)[C@@](C(=O)OC)(c4cc5c(cc4OC)N(C)[C@H]4[C@@](O)(C(=O)OC)[C@H](OC(C)=O)[C@]6(CC)C=CCN7CC[C@]54[C@@H]76)CC(C3)[C@H]1O2 (some centres undefined) [VINLEUROSINE SULFATE] ?
active

Would you mind telling me which call this test gave COc1ccc(C2OC(c3ccncc3)=NN2C)cc1F (centres undefined) ?
inactive

Would you mind telling me which call this test gave COc1cc(OCc2ccc3nc(-c4ccccc4)c(N)nc3c2)cc(OC)c1OC ?
inactive

Would you mind telling me which call this test gave CCn1c(=O)c2nc(SC)sc2n(-c2ccccc2)c1=O ?
inactive

Would you mind telling me which call this test gave COC(=O)[C@]12CC[C@H]3CN(S(=O)(=O)c4ccc(C)cc4)[C@H]([C@H]31)[C@H](c1ccco1)N2S(=O)(=O)c1ccc(C)cc1 ?
inactive

Would you mind telling me which call this test gave C[C@H]1C[C@H]2[C@@H]3CCC4=CC(=O)C=C[C@]4(C)C3=CC[C@]2(C)[C@@]1(O)C(=O)CO ?
inactive

The reported numbers originate from ChEMBL document CHEMBL1201862.
